System: Crude diglycosidase
Test: Examination of pH in the conversion into isoflavone aglycons by diglycosidase using soybean materials
Assay type: biochemical, Penicillium multicolor IAM7153
Conditions: pH6.5, heat treatment of enzyme no, reaction time 0 h, 55° C.
measured attribute: Decomposition efficiency of daidzin family in roasted soy flour

In the examples that follow, each entry is paired with its recorded Decomposition efficiency of daidzin family in roasted soy flour.
- input smiles: "O=c1c(-c2ccc(O)cc2)coc2cc(O[C@@H]3O[C@H](CO)[C@@H](O)[C@H](O)[C@H]3O)ccc12"
  result value: 48.4
- input smiles: "O=c1c(-c2ccc(O)cc2)coc2cc(O)ccc12"
  result value: 3.4

-- ask Annotate the compound CC(=O)OC[C@H]1O[C@@H](Oc2ccc3c(=O)c(-c4ccc(O)cc4)coc3c2)[C@H](O)[C@@H](O)[C@@H]1O with its measured Decomposition efficiency of daidzin family in roasted soy flour.
-- reply 48.2
